# testedSystem: human dopamine D1 (Homo sapiens, UniProt P21728)
# Construct: purchased BioSignal, Inc. (Montreal, Canada); host or cells: membranes of cells expressing the receptor
# Sequence (P21728 whole entry): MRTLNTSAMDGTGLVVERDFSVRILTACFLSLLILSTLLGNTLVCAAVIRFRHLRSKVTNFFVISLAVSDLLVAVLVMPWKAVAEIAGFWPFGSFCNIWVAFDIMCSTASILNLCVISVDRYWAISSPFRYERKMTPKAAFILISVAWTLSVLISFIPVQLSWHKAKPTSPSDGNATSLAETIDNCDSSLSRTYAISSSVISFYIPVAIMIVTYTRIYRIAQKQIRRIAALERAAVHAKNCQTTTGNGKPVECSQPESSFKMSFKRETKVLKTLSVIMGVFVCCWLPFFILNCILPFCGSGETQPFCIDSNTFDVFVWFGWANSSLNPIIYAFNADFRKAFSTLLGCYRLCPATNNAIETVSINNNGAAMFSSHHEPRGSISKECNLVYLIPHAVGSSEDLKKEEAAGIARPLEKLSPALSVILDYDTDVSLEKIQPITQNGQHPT
# testSummary: Radioligand binding, dopamine D1 receptor
# testConditions: Table 10; Ki hD1 divided by Ki hGAL3
metric: selectivity ratio hD1

> print(dat)
                          chemicalstructure                 metric  assayresult
1  COc1cccc(Nc2cc(N3CCCCC3)nc(N(C)CCc3c[nH]c4ccccc34)n2)c1  selectivity ratio hD1            6
2   O=C1C(=Nc2ccc(Cl)cc2)c2ccccc2N1c1ccccc1  selectivity ratio hD1         >100
3  O=C1C(=Nc2cccc(C(F)(F)F)c2)c2ccccc2N1c1ccccc1  selectivity ratio hD1         >100
4  Cc1ccc(Nc2cc(N3CCCCC3)nc(N(C)CCc3ccccc3)n2)cc1  selectivity ratio hD1            5

###

# testedSystem: human GAL1 receptor (Homo sapiens, UniProt P47211)
# Construct: expressed in transfected cells
# Sequence (P47211 whole entry): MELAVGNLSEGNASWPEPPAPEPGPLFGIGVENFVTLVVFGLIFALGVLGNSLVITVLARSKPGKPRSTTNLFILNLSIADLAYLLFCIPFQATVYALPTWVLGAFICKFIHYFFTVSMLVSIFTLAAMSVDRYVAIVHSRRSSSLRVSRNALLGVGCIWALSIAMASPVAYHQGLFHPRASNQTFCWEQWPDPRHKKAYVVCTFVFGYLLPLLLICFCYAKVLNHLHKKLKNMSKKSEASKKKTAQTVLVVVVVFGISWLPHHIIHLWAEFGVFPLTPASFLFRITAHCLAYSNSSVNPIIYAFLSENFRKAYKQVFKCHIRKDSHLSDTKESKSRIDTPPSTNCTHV
# testSummary: Radioligand binding at cloned human GAL1 receptor
# testConditions: pyrimidines, read-out: Ki GalR1
# label = met if Ki < 3 µM else not met

> print(dat)
                                    molecule                              testedsystem      cat
 1  CN(C)c1cc(Nc2ccc(Cl)c(Cl)c2)nc(Nc2ccccc2)n1 [Example 60]  human GAL1 receptor (Homo sapiens, UniProt P47211)  not met
 2  CCN(CCc1c[nH]c2ccccc12)c1nc(Nc2ccc(C)cc2)cc(N2CCCCC2)n1 [Example 18]  human GAL1 receptor (Homo sapiens, UniProt P47211)  not met
 3  Cc1ccc(Nc2cc(N3CCCCC3)nc(N3CCN(c4cccc(C(F)(F)F)c4)CC3)n2)cc1 [Example 29]  human GAL1 receptor (Homo sapiens, UniProt P47211)      met
 4  COCCN(c1nc(Nc2ccc(C)cc2)cc(N(C)C)n1)C1CCCCC1 [Example 74]  human GAL1 receptor (Homo sapiens, UniProt P47211)      met
 5  CN(CCc1c[nH]c2ccccc12)c1nc(Nc2ccc3ccccc3c2)cc(N2CCCCC2)n1 [Example 13]  human GAL1 receptor (Homo sapiens, UniProt P47211)      met
 6  Cc1ccc(Nc2cc(N3CCCCC3)nc(N3CCO[C@@H](c4ccccc4)[C@H]3C)n2)cc1 [Example 48]  human GAL1 receptor (Homo sapiens, UniProt P47211)  not met
 7  Cc1ccc(Nc2cc(N3CCCCC3)nc(N3CCCC3)n2)cc1 [Example 38]  human GAL1 receptor (Homo sapiens, UniProt P47211)      met
 8  CN(C)c1cc(Nc2ccc(Cl)cc2)nc(Nc2ccccc2)n1 [Example 58]  human GAL1 receptor (Homo sapiens, UniProt P47211)  not met
 9  Cc1ccc(Nc2cc(N3CCN(c4ncccc4C(F)(F)F)CC3)nc(N3CCCCC3)n2)cc1 [Example 89]  human GAL1 receptor (Homo sapiens, UniProt P47211)      met
10  Cc1ccc(Nc2cc(N3CCCCC3)nc(N(C)CCc3ccccc3)n2)cc1 [Example 22]  human GAL1 receptor (Homo sapiens, UniProt P47211)      met
11  FC(F)(F)c1cccnc1N1CCN(c2nc(NC3CC4CCC3C4)cc(N3CCCCC3)n2)CC1 (stereo not drawn) [Example 36]  human GAL1 receptor (Homo sapiens, UniProt P47211)      met
12  COCCN(c1nc(Nc2ccc(C)cc2)cc(N2CCCCC2)n1)C1CCCCC1 [Example 2]  human GAL1 receptor (Homo sapiens, UniProt P47211)      met
13  CC1CCC(Nc2cc(N(C)C)nc(Nc3ccccc3)n2)CC1 (stereo not drawn) [Example 67]  human GAL1 receptor (Homo sapiens, UniProt P47211)  not met
14  Cc1ccc(Nc2cc(N3CCCCC3)nc(N(C)c3ccc(C)cc3)n2)cc1 [Example 7]  human GAL1 receptor (Homo sapiens, UniProt P47211)      met
15  Cc1ccc(Nc2cc(N(C)C)nc(NCCc3c[nH]c4ccccc34)n2)cc1 [Example 76]  human GAL1 receptor (Homo sapiens, UniProt P47211)  not met
16  Cc1ccc(Nc2cc(N3CCCCC3)nc(Nc3ccc(Cl)cc3)n2)cc1 [Example 5]  human GAL1 receptor (Homo sapiens, UniProt P47211)  not met
17  CN(CCc1c[nH]c2ccccc12)c1nc(Nc2ccc(F)c(F)c2)cc(N2CCCCC2)n1 [Example 15]  human GAL1 receptor (Homo sapiens, UniProt P47211)      met
18  CN(C)c1cc(NC2CC3CCC2(C)C3(C)C)nc(Nc2ccccc2)n1 (stereo not drawn) [Example 70]  human GAL1 receptor (Homo sapiens, UniProt P47211)  not met
19  Cc1ccc(Nc2cc(N3CCCCC3)nc(N(C)C(C)Cc3c[nH]c4ccccc34)n2)cc1 (stereo not drawn) [Example 21]  human GAL1 receptor (Homo sapiens, UniProt P47211)  not met
20  Cc1ccc(Nc2cc(N3CCCCC3)nc(N3CCN(c4ncccc4C(F)(F)F)CC3)n2)cc1 [Example 34]  human GAL1 receptor (Homo sapiens, UniProt P47211)      met
21  COCC1CCCCN1c1cc(Nc2ccc(C)cc2)nc(N2CCN(c3ncccc3C(F)(F)F)CC2)n1 (stereo not drawn) [Example 90]  human GAL1 receptor (Homo sapiens, UniProt P47211)  not met
22  Cc1ccc(Nc2cc(N3CCCCC3)nc(N3CCOCC3c3ccccc3)n2)cc1 (stereo not drawn) [Example 46]  human GAL1 receptor (Homo sapiens, UniProt P47211)  not met
23  Cc1ccc(Nc2cc(N3CCCCC3)nc(NC(C)Cc3c[nH]c4ccccc34)n2)cc1 (stereo not drawn) [Example 20]  human GAL1 receptor (Homo sapiens, UniProt P47211)  not met
24  Cc1ccc(Nc2cc(N3CCCCC3)nc(N3CCOC(c4ccccc4)C3)n2)cc1 (stereo not drawn) [Example 47]  human GAL1 receptor (Homo sapiens, UniProt P47211)  not met
